Catalogue of molecules with associated Population Normal (%)
Tested on: HEK-293T
Assay: Multiplex assay against HEK293T
Type: toxicity, cell-based
Conditions: human, 24 h, 10 µM, compound concentration 10 uM, replicate 1
Be sure to follow the number with its unit.

Consider the following illustrative entries.
CC[C@H]1OC(=O)[C@H](C)[C@@H](O[C@H]2C[C@@](C)(OC)[C@@H](O)[C@H](C)O2)[C@H](C)[C@@H](O[C@@H]2O[C@H](C)C[C@H](N(C)C)[C@H]2O)[C@@]2(C)CC(C)=C(O2)[C@H](C)[C@@H](O)[C@]1(C)O :: 88%
Cc1ccc(C(C)(O)c2nc3ccccc3s2)c(C)c1 (stereo not given) :: 91%
Cc1ccc(/C(=C\CN2CCCC2)c2ccccn2)cc1 :: 90%
CC(=O)NCCc1c(Cc2ccccc2)[nH]c2ccccc12 :: 89%

# ---- query molecule ----
## Task Find the measured Population Normal (%): item Cc1ccccc1C(=O)Nc1ccc(C(=O)N2CCCC(N(C)C)c3ccccc32)cc1.Cl (stereo not given) , target or system HEK-293T.
## Result 92%

----------
Tested on: HEK-293T
Test: Multiplex assay against HEK293T
Assay type: toxicity, cell-based
Settings: human, 12 h, 10 µM, compound concentration 10 uM, replicate 2
test-readout: Population Healthy Nuclei (%)
Give the quantity in %, number only.

Consider the following illustrative entries.
COc1cc(NC(=O)CCN2CCC(OC(=O)Nc3ccccc3-c3ccccc3)CC2)c(Cl)cc1CNC[C@H](O)c1ccc(O)c2[nH]c(=O)ccc12 :: 72
CCNC1(C(N)=O)CCN(c2ncnc3c2nc(-c2ccccc2Cl)n3-c2ccc(Cl)cc2)CC1 :: 67
COc1ccc2c(c1)C(C(=O)N(Cc1ccc(N(C)C)cc1)c1ccc(C(C)C)cc1)CCC2.Cl (stereo unspecified) :: 77
O=S(=O)(c1ccccc1)c1cnc2c(N3CCNCC3)cccc2c1 [INTEPIRDINE] :: 79

## Task // lookup Population Healthy Nuclei (%) for CCOc1c2c(c(OCC)c3ncccc13)CN(c1ccc(CS(=O)(=O)NC(=O)Cc3ccccc3OC)cc1C)C2=O
## Result 76

## Task // lookup Population Healthy Nuclei (%) for CCCn1c(=O)c2[nH]c(C3CCCC3)nc2n(CCC)c1=O
## Result 75

----------
Test system: HEK-293T
Experiment: Multiplex assay against HEK293T
Assay type: toxicity, cell-based
Details: human, 24 h, 10 µM, compound concentration 10 uM, replicate 1
test-readout: Population Healthy Nuclei (%)
Give the quantity in %, number only.

Consider the following illustrative entries.
Cc1ccc(F)cc1C(=O)Nc1ccc(C(=O)N2Cc3cccn3Cc3ccccc32)c(Cl)c1 :: 69
O=C(NCCO)c1cccc(-c2cc(Nc3ccc(OC(F)(F)F)cc3)ncn2)c1 :: 80
Cc1ccccc1C(=O)Nc1ccc(C(=O)N2CCCC(N(C)C)c3ccccc32)cc1.Cl (centres undefined) :: 70
CC1(COc2ccc3c(c2)ncn3-c2ccc3cccc(N4CCC(N)CC4)c3n2)COC1 :: 16
CN1CCN2c3ncccc3Cc3ccccc3C2C1 (centres undefined) :: 78

## Task // lookup Population Healthy Nuclei (%) for CNC[C@H](O)c1ccc(O)c(O)c1 [EPINEPHRINE]
## Result 75

## Task // lookup Population Healthy Nuclei (%) for O=C(O)c1cc2ccccc2c(Cc2c(O)c(C(=O)O)cc3ccccc23)c1O
## Result 75

## Task // lookup Population Healthy Nuclei (%) for COc1ccccc1N1CCN(CCCCNC(=O)c2ccc3ccccc3c2)CC1.Cl
## Result 74

## Task // lookup Population Healthy Nuclei (%) for O=C(O)Cc1ccccc1Nc1c(Cl)cccc1Cl
## Result 77

----------
System: HEK-293T
Assay: Multiplex assay against HEK293T
Assay type: toxicity, cell-based
Details: human, 12 h, 10 µM, compound concentration 10 uM, replicate 1
Catalogue of molecules with associated Population Pyknosed Nuclei (%)
Be sure to follow the number with its unit.

Consider the following illustrative entries.
Cc1ccc(F)cc1C(=O)Nc1ccc(C(=O)N2Cc3cccn3Cc3ccccc32)c(Cl)c1 :: 22%
CN(C)CCCc1cc(C(=O)Nc2ccc(-c3ccncc3)cc2)ccc1O.Cl.Cl :: 7%
Cl.Clc1ccc2nsnc2c1NC1=NCCN1 [TIZANIDINE HYDROCHLORIDE] :: 9%

## Task // lookup Population Pyknosed Nuclei (%) for Cc1nc2ccc(Oc3ccc(F)cc3)cc2c(=O)n1C[C@H]1CCCN(C(C)C)C1.Cl
## Result 13%

## Task // lookup Population Pyknosed Nuclei (%) for N[C@@]1(C(=O)O)CO[C@H]2[C@H](C(=O)O)[C@H]21
## Result 10%

## Task // lookup Population Pyknosed Nuclei (%) for COc1ccc2c(c1)C(C(=O)N(Cc1ccc(N(C)C)cc1)c1ccc(C(C)C)cc1)CCC2.Cl (stereo not given)
## Result 11%

## Task // lookup Population Pyknosed Nuclei (%) for Cc1ccccc1C(=O)Nc1ccc(C(=O)N2CCCC(N(C)C)c3ccccc32)cc1.Cl (stereo not given)
## Result 22%

## Task // lookup Population Pyknosed Nuclei (%) for c1cc(OCCCN2CCCCC2)ccc1CN1CCCCC1
## Result 17%

## Task // lookup Population Pyknosed Nuclei (%) for O=C1COc2nccc(-c3ccccc3F)c2CN1Cc1cc(C(F)(F)F)cc(C(F)(F)F)c1
## Result 13%

----------
Catalogue of compounds with associated Total Cell Count
Tested on: U2OS
Assay: Multiplex assay against U2OS
Assay type: toxicity, cell-based
Settings: human, 24 h, 10 µM, compound concentration 10 uM, replicate 2
Please reply with the number alone, leaving off any unit.

Consider the following illustrative entries.
Oc1c(CN2CCN(c3ccccn3)CC2)cc(Cl)c2cccnc12 :: 127
Cc1ccc(/C(=C\CN2CCCC2)c2ccccn2)cc1 [TRIPROLIDINE] :: 149
Cc1ccccc1C(=O)Nc1ccc(C(=O)N2CCCC(N(C)C)c3ccccc32)cc1.Cl (configuration not stated) :: 73
C[C@H](NC(=O)c1c(C(F)F)nn(C)c1Oc1cccc(C(F)(F)F)c1)c1ccc(C(=O)O)cc1 [PALUPIPRANT] :: 139
CSCC[C@H](NC=O)C(=O)N[C@@H](CC(C)C)C(=O)N[C@@H](Cc1ccccc1)C(=O)O :: 147

## Task // lookup Total Cell Count for Cc1ccc(-c2ccc(F)cc2COc2ccc(CCC(=O)O)cc2)cc1
## Result 160

## Task // lookup Total Cell Count for CC(C)(C)c1ccc(S(=O)(=O)Nc2ccc(Cl)cc2C(=O)c2cc[n+]([O-])cc2)cc1 [VERCIRNON]
## Result 160

## Task // lookup Total Cell Count for O=C1COc2nccc(-c3ccccc3F)c2CN1Cc1cc(C(F)(F)F)cc(C(F)(F)F)c1
## Result 126

## Task // lookup Total Cell Count for CCOc1c2c(c(OCC)c3ncccc13)CN(c1ccc(CS(=O)(=O)NC(=O)Cc3ccccc3OC)cc1C)C2=O
## Result 152

## Task // lookup Total Cell Count for O=C(O)c1cc2ccccc2c(Cc2c(O)c(C(=O)O)cc3ccccc23)c1O [PAMOIC ACID]
## Result 163

## Task // lookup Total Cell Count for CC[C@H]1OC(=O)[C@H](C)[C@@H](O[C@H]2C[C@@](C)(OC)[C@@H](O)[C@H](C)O2)[C@H](C)[C@@H](O[C@@H]2O[C@H](C)C[C@H](N(C)C)[C@H]2O)[C@@]2(C)CC(C)=C(O2)[C@H](C)[C@@H](O)[C@]1(C)O
## Result 121

## Task // lookup Total Cell Count for c1cc(OCCCN2CCCCC2)ccc1CN1CCCCC1 [JNJ-5207852]
## Result 157

## Task // lookup Total Cell Count for CCNC1(C(N)=O)CCN(c2ncnc3c2nc(-c2ccccc2Cl)n3-c2ccc(Cl)cc2)CC1 [OTENABANT]
## Result 137

## Task // lookup Total Cell Count for C[C@@H]1C[C@H]2[C@@H]3CCC4=CC(=O)C=C[C@]4(C)[C@@]3(F)[C@@H](O)C[C@]2(C)[C@@]1(O)C(=O)CO [DEXAMETHASONE]
## Result 219

## Task // lookup Total Cell Count for COc1c(C)cc(NC(=O)c2nn(Cc3ccc(F)cc3)c3c2CN(C(=O)c2ccc[nH]2)C[C@]3(C)C(N)=O)cc1C
## Result 123

## Task // lookup Total Cell Count for CCCn1c(=O)c2[nH]c(C3CCCC3)nc2n(CCC)c1=O
## Result 120

## Task // lookup Total Cell Count for C[C@H]1[C@H]2CC[C@H]3[C@@H]4CC=C5C[C@@H](N(C)C)CC[C@]5(C)[C@H]4CC[C@]23CN1C [CONESSINE]
## Result 134

## Task // lookup Total Cell Count for N[C@@]1(C(=O)O)CO[C@H]2[C@H](C(=O)O)[C@H]21 [LY-379268]
## Result 165

## Task // lookup Total Cell Count for N#Cc1c(N)nc(SCc2csc(-c3ccc(Cl)cc3)n2)c(C#N)c1-c1ccc(OCCO)cc1 [CAPADENOSON]
## Result 95

## Task // lookup Total Cell Count for CN(C)CCCc1cc(C(=O)Nc2ccc(-c3ccncc3)cc2)ccc1O.Cl.Cl
## Result 118

## Task // lookup Total Cell Count for CN1CCN(c2nc3cc(C(F)(F)F)ccc3n3cccc23)CC1.O=C(O)/C=C\C(=O)O.O=C(O)/C=C\C(=O)O
## Result 156

## Task // lookup Total Cell Count for COc1ccc2c(c1)C(C(=O)N(Cc1ccc(N(C)C)cc1)c1ccc(C(C)C)cc1)CCC2.Cl (configuration not stated)
## Result 115

## Task // lookup Total Cell Count for Cl.Clc1ccc2nsnc2c1NC1=NCCN1 [TIZANIDINE HYDROCHLORIDE]
## Result 118

## Task // lookup Total Cell Count for O=C(NCCO)c1cccc(-c2cc(Nc3ccc(OC(F)(F)F)cc3)ncn2)c1
## Result 96

Origin of measurements: ChEMBL document CHEMBL5058577
